Task for the reader: assign each of the following molecules its reported IC50.
target: USP25 (Homo sapiens); construct: purchased R&D Systems; assay: USP25 activity measured using ubiquitin-rhodamine 110 method; type: biochemical; conditions: purified USP25 15 nM, ubiquitin-rhodamine 110 125 nM, 30 min preincubation; read-out: Inhibitory activity against USP25 (IC50)
Sequence (Q9UHP3 whole entry): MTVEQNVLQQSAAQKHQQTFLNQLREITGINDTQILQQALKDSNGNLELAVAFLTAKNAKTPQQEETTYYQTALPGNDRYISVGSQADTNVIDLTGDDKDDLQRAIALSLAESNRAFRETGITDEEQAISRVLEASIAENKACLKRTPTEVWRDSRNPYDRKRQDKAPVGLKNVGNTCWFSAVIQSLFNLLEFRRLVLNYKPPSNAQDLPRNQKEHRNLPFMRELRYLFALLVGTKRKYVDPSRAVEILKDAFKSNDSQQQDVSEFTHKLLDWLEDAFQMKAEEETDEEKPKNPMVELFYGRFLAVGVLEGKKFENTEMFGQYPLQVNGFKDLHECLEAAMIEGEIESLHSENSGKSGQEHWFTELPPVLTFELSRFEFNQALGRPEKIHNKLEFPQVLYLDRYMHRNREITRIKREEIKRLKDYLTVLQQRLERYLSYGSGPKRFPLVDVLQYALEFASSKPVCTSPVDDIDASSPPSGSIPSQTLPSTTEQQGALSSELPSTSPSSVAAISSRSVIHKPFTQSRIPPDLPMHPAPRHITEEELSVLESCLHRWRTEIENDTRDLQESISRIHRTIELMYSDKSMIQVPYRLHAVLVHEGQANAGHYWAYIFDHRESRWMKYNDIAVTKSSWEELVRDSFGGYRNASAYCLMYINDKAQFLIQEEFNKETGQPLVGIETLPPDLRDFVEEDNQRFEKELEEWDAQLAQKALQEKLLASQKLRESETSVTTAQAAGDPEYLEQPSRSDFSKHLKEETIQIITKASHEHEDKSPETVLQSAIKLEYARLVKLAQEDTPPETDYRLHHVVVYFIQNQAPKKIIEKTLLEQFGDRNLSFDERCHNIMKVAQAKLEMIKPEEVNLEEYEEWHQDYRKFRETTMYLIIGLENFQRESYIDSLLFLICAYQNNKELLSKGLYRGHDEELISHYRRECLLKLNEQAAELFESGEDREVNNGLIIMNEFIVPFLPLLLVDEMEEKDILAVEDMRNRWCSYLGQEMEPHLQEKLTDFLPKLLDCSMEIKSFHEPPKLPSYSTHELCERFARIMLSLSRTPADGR

Reference set, count: 5
INSERT INTO measurements (molecule, endpoint_value) VALUES
  ('CNc1c(C(=O)NCCc2csc3ccccc23)sc2nc(C)ccc12 [Compound I-57]', '5 to 10 µM'),
  ('CNc1c(C(=O)NCCc2cc(F)c(N3C[C@H]4CC[C@@H](C3)N4)c(Cl)c2)sc2nc(C)ccc12 [Compound I-44]', '> 10 µM'),
  ('CNc1c(C(=O)NC2CCc3cc(N4CC5CCC(C4)N5)ccc3C2)sc2nc(C)ccc12 (stereo not drawn) [Compound I-89]', '5 to 10 µM'),
  ('CNc1c(C(=O)NCCc2ccc(N3C[C@H]4CC[C@@H](C3)N4)cc2)sc2ncccc12 [Compound I-9]', '0.1 to 1 µM'),
  ('CNc1c(C(=O)NC2COc3cc(N4CC5CCC(C4)N5)ccc3C2)sc2nc(C)ccc12 (stereo not drawn) [Compound I-86]', '1 to 5 µM');

Turning to the following molecule.
Give me measured IC50, please, for this molecule: CNc1c(C(=O)NC[C@H](C)c2ccc(N3C[C@H]4CC[C@@H](C3)N4)cc2)sc2nc(C)ccc12 [Compound I-67]
0.1 to 1 µM
